Ref: patent US20230263822A1

# Parameters: species or system CD1 mice
# Settings: mouse, in vivo, sc, 50 mg/kg
Property: Half-Life in the liver

| Substance | Readout Value |
| --- | --- |
| 413481 (antisense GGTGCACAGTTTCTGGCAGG; 5-10-5 MOE gapmer, further chemistry not given here) [compound 413481] | 20.6 days |
| 416867 (antisense ACTGGCAGCGGACGGCATTG; 5-10-5 gapmer, further chemistry not given here) [compound 416867] | 18.9 days |
| 416863 (antisense CAGCGGACGGCATTGGTGCA; 5-10-5 gapmer, further chemistry not given here) [compound 416863] | 19.8 days |

----------
The following substances are shown together with reported Neutrophil values.
# Settings: rat, in vivo, sc, 50 mg/kg
e = 2'-O-(2-methoxyethyl) (MOE); d = 2'-deoxy (DNA)

| Substance | Neutrophil |
| --- | --- |
| ISIS 445513: 5-8-5 or 6-8-6 MOE microwalk gapmer (Table 44) (antisense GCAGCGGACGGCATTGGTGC; sugars from the 5' end e6 d8 e6, backbone and methylation of C not given here) | 14% |
| ISIS 445504: 5-8-5 or 6-8-6 MOE microwalk gapmer (Table 44) (antisense GGCATTGGTGCACAGTTTCT; sugars from the 5' end e6 d8 e6, backbone and methylation of C not given here) | 10% |

----------
# Tested on: IL-1β, IL-6, IFN-γ, TNF-α, IL-8, MIP-1α, MCP-1, MIP-1β, RANTES
# Assay Explanation: Cytokine and chemokine assays in cynomolgus monkeys (Example 46)
# Format: in vivo
# Settings: day 55
Strand notation (5' to 3'): a small letter for the sugar, then the base; units joined by * are phosphorothioate-linked, units joined directly phosphodiester-linked; [ ] holds rarer units or linkages, { } end groups; capitals alone tell only the bases. e = 2'-O-(2-methoxyethyl) (MOE); [5mC] = 5-methylcytosine; d = 2'-deoxy (DNA)
The following substances are shown together with reported MCP-1 level values.
Property: MCP-1 level (pg/mL)

| Substance | Property | Units Symbol | Readout Value |
| --- | --- | --- | --- |
| ISIS 445531: 5-8-5 or 6-8-6 MOE microwalk gapmer (Table 44) (antisense eG*eG*e[5mC]*eA*eT*dT*dG*dG*dT*dG*d[5mC]*dA*d[5mC]*eA*eG*eT*eT*eT) | MCP-1 level | pg/mL | 339 |
| ISIS 449707: 3-8-3, 4-8-4, 2-10-2, 3-10-3 or 4-10-4 MOE microwalk gapmer (Table 46) (antisense e[5mC]*eA*e[5mC]*eA*dG*dT*dT*dT*d[5mC]*dT*dG*dG*e[5mC]*eA*eG*eG) | MCP-1 level | pg/mL | 264 |
| ISIS 416858: MOE gapmer, nucleobases 1275 to 1318 of SEQ ID NO: 1 (Table 8) (antisense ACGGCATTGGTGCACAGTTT; MOE gapmer, wing and gap sizes not given here) | MCP-1 level | pg/mL | 512 |

----------
# Tested on: fibrinogen
# Assay Explanation: Fibrinogen assay (Example 45)
# Type: in vivo, cynomolgus monkeys
# Settings: plasma; day 85; escalating dose regimen
# Procedure: Groups, each consisting of two male and three female monkeys, were injected subcutaneously with ISIS 416838, ISIS 416850, ISIS 416858, ISIS 416864, or ISIS 417002 in escalating doses. […] Body weights were measured weekly. […] Nine parts of fresh monkey plasma was collected into one part of trisodium citrate. The samples were evaluated of fibrinogen content using an ACL 9000 coagulation instrument (Instrumentation Laboratory, Italy). […]
Answer condition not met if fibrinogen levels is under 200 mg/dL, and condition met if it is 200 mg/dL or more.

| Substance | Label |
| --- | --- |
| ISIS 417002: MOE gapmer, nucleobases 1275 to 1318 of SEQ ID NO: 1 (Table 8) (antisense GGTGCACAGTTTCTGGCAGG; MOE gapmer, wing and gap sizes not given here) | condition met |
| ISIS 416858: MOE gapmer, nucleobases 1275 to 1318 of SEQ ID NO: 1 (Table 8) (antisense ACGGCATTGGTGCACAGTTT; MOE gapmer, wing and gap sizes not given here) | condition met |
| ISIS 416850: MOE gapmer, nucleobases 1275 to 1318 of SEQ ID NO: 1 (Table 8) (antisense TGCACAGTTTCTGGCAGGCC; MOE gapmer, wing and gap sizes not given here) | condition not met |
| ISIS 416864: MOE gapmer, nucleobases 1275 to 1318 of SEQ ID NO: 1 (Table 8) (antisense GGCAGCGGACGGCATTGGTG; MOE gapmer, wing and gap sizes not given here) | condition met |
